Data credit: ChEMBL document CHEMBL3352088

method summary: Cytotoxicity against MDCK cells assessed reduction in cell viability after 48 hrs by MTT assay
Assay type: cell-based, Canis lupus familiaris
condition label: dog, read-out: CTD50
quantity kind: CC50 at 48 h

The cases that follow already have their CC50 at 48 h on record.
CC(=O)C1=C(O)C=C2Oc3c4c(c(C)c(O)c3[C@@]2(C)C1=O)O/C(=C\c1ccc(Br)cc1)C4=O    39.4 µM
CC(=O)[C@@]12O[C@@]13OC1=Cc4c(c(C)nn4-c4ccccc4)C(=O)[C@]1(C)[C@@]3(O)C(O)=C(C)C2=O    67 µM
CC(=O)C1=C(O)C=C2Oc3c(C(C)=O)c(OC(F)(Cl)C(F)F)c(C)c(O)c3[C@@]2(C)C1=O (some centres undefined)    100 µM

# input for lookup
Problem: Please report CC50 at 48 h for the following compound: `COc1ccc2[nH]c(SCC(=O)c3c(OC)c(C)c(O)c4c3OC3=CC(O)=C(C(C)=O)C(=O)[C@@]34C)nc2c1`
Result: 560 µM
